List of Kd tested on PCSK9 (biotinylated) (Homo sapiens).
Sequence (Q8NBP7 153-692): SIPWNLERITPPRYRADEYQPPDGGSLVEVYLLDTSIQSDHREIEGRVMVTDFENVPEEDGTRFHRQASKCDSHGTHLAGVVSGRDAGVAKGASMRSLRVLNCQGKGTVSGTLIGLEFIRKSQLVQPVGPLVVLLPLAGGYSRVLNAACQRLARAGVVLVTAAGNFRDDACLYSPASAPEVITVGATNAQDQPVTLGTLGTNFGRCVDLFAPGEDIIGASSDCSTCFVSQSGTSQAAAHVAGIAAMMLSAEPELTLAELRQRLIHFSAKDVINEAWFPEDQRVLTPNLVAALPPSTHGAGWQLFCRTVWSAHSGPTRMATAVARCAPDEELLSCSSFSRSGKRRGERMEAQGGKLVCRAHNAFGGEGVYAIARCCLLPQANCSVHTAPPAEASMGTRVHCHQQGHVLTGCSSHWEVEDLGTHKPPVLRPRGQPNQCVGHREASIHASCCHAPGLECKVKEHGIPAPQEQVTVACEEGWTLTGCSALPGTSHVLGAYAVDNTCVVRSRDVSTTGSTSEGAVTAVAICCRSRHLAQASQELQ
Report as a plain number; the unit nM is understood.

Worked examples, 2 molecules total:
Here O=c1ccccn1-c1ccc(N[C@H]2CC[C@H](Nc3ncc4c(n3)OCCO4)C2)nc1 was tested on PCSK9 (biotinylated) (Homo sapiens), and its Kd came to 75.8

Here O=c1ccccn1-c1ccc(N[C@H]2CC[C@H](Nc3ncc4c(n3)C(F)(F)CC4)C2)nc1 was tested on PCSK9 (biotinylated) (Homo sapiens), and its Kd came to 68.7

Below: the item to evaluate.
Here O=c1ccccn1-c1ccc(N[C@H]2CC[C@H](Nc3ncc4c(n3)CCC4)C2)nc1 was tested on PCSK9 (biotinylated) (Homo sapiens), and its Kd came to 26.3

----------
experiment: in vivo; conditions: male, C57BL6J, mouse, plasma, po, 10 mg/kg
observable: Cmax (ng/mL)
Report as a plain number; the unit ng/mL is understood.

Sure, the documented Cmax for O=c1ccccn1-c1ccc(N[C@H]2CC[C@H](Nc3ncc4c(n3)OCCO4)C2)nc1 is 11400

----------
assay: Stability test in hepatocytes (metabolic clearance rate); format: in vitro ADME; conditions: cryopreserved hepatocytes, mouse hepatocytes, 0.5 × 10^6 cells/mL, up to 120 min
Listing of recorded hepatocyte CLint at 1 µM by entry.

Worked examples, 3 compounds total:
Sure, the documented hepatocyte CLint at 1 µM for O=c1ccccn1-c1ccc(N[C@H]2CC[C@H](Nc3ncc4c(n3)CCC4)C2)nc1 is 13.2 µL/min/1e6 cells

Sure, the documented hepatocyte CLint at 1 µM for O=c1ccccn1-c1ccc(N[C@H]2CC[C@H](Nc3ncc4sccc4n3)C2)nc1 [Reference compound 2, reference compound] is 15.7 µL/min/1e6 cells

Sure, the documented hepatocyte CLint at 1 µM for O=c1ccccn1-c1ccc(N[C@H]2CC[C@H](Nc3ncc4c(n3)OCCO4)C2)nc1 is < 0.1 µL/min/1e6 cells

Continuing:
Sure, the documented hepatocyte CLint at 1 µM for O=c1ccccn1-c1ccc(N[C@H]2CC[C@H](Nc3ncc4c(n3)C(F)(F)CC4)C2)nc1 is 21 µL/min/1e6 cells
